# Tested On: Rat plasma DPP-IV (Rattus norvegicus)
# Construct: Rat plasma DPP-IV
# Sequence (P14740 38-767 limits assumed): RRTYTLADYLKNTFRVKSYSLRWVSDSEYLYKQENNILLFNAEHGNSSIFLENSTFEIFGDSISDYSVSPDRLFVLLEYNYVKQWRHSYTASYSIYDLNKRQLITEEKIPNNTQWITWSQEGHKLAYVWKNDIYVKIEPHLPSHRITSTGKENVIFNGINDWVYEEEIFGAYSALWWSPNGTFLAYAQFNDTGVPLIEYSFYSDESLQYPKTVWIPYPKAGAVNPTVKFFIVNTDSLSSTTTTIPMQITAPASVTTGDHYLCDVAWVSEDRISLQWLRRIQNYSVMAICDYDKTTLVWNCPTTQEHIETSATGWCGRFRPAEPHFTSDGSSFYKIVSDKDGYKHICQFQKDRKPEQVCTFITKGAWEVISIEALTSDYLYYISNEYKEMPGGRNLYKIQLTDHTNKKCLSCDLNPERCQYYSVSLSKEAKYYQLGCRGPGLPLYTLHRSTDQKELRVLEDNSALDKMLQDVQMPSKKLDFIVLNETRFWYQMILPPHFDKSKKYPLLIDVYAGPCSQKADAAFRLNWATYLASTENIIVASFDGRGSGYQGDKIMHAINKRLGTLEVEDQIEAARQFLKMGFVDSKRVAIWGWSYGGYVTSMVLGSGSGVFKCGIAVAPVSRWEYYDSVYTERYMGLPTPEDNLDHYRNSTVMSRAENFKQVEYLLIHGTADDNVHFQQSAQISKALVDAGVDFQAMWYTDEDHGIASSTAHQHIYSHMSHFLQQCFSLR
# Experiment Notes: Plasma DPP-IV inhibitory activity, fluorescence assay with Gly-Pro-MCA (rat plasma)
# Details: rat plasma (10-fold dilution), Gly-Pro-MCA substrate, room temperature, 60 min
Counter-ions that a name gives are not always drawn.
Readout Type: IC50 (nM)

Molecule: O=C([C@@H]1C[C@H](N2CCN(c3cc(C(F)(F)F)nc4ccc(O)cc34)CC2)CN1)N1CCSC1 [Example 48, dihydrochloride]
Reported: 0.37
--
Molecule: CS(=O)(=O)c1ccc(NCCCC[C@H](N)C(=O)N2CCSC2)cc1
Reported: 13
--
Molecule: N[C@@H](CCCCNc1ccc([N+](=O)[O-])cn1)C(=O)N1CCSC1
Reported: 18

* * *

# Tested On: Rat plasma DPP-IV (Rattus norvegicus)
# Construct: Rat plasma DPP-IV
# Experiment Notes: Plasma DPP-IV inhibitory activity, fluorescence assay with Gly-Pro-MCA (rat plasma)
# Details: rat plasma (10-fold dilution), Gly-Pro-MCA substrate, room temperature, 60 min
# Protocol: The plasma DPP-IV inhibitory activity of human and rat was measured according to the fluorescence assay method and under the conditions of Table 10. […] The inhibitory ratio to a solvent addition group was calculated and IC50 value was determined by logistic analysis.
pIC50: −log10 of the molar value. Where a name gives a salt, the structure may show the parent alone.

Compound: N#Cc1ccc(NCCCC[C@H](N)C(=O)N2CCSC2)cc1C(F)(F)F
pIC50: 7.40
--
Compound: N#Cc1ccc(NCCCC[C@H](N)C(=O)N2CCSC2)c([N+](=O)[O-])c1
pIC50: 7.72
--
Compound: NCCCC[C@H](N)C(=O)N1CCSC1.O=C(O)C(F)(F)F.O=C(O)C(F)(F)F [comparison compound 1, ditrifluoroacetate, reference compound]
pIC50: 6.14
--
Compound: N[C@@H](CCCCN1CCN(c2cc(C(F)(F)F)nc3ccccc23)CC1)C(=O)N1CCSC1 [Example 28, dihydrochloride]
pIC50: 7.31
--
Compound: N#Cc1ccc(NCCCC[C@H](N)C(=O)N2CCSC2)nc1 [Example 6, dihydrochloride]
pIC50: 7.54
--
Compound: Cc1cc(C)n(C2CCN([C@@H]3CN[C@H](C(=O)N4CCSC4)C3)CC2)n1 [Example 56, trihydrochloride]
pIC50: 8.93
--
Compound: COc1cc(OC)c2nc(C(F)(F)F)cc(N3CCN([C@@H]4CN[C@H](C(=O)N5CCSC5)C4)CC3)c2c1 [Example 55, dihydrochloride]
pIC50: 9.52

* * *

# Tested On: Human plasma DPP-IV (Homo sapiens)
# Construct: Human plasma DPP-IV
# Sequence (P27487 39-766 limits assumed): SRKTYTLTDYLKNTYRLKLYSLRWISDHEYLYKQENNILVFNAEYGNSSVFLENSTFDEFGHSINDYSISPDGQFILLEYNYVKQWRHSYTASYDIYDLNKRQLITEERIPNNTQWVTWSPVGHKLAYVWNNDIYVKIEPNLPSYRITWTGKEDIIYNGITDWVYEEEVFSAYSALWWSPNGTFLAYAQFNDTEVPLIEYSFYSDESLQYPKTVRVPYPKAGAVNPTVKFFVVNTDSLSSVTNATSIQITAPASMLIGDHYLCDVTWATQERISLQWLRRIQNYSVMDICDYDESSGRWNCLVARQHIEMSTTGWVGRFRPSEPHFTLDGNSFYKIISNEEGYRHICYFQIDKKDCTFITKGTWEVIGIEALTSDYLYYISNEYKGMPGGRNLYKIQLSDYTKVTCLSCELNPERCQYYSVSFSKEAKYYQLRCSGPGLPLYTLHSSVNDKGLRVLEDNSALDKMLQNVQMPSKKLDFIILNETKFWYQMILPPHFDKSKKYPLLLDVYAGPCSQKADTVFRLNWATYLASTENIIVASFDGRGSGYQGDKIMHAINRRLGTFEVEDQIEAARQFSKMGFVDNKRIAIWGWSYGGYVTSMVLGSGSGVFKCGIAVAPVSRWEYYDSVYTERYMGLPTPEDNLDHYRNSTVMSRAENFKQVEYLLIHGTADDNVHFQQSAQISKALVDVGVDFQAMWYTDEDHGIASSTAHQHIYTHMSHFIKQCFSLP
# Experiment Notes: Plasma DPP-IV inhibitory activity, fluorescence assay with Gly-Pro-MCA (human plasma)
# Details: human plasma (10-fold dilution), Gly-Pro-MCA substrate, room temperature, 60 min
Where a name gives a salt, the structure may show the parent alone.
The reader will find reported IC50 values listed item by item below.

Molecule: CS(=O)(=O)c1ccc(NCCCC[C@H](N)C(=O)N2CCSC2)cc1
Tested On: Human plasma DPP-IV (Homo sapiens)
IC50: 15 nM
--
Molecule: N#Cc1ccc(NCCCC[C@H](N)C(=O)N2CCSC2)cc1C(F)(F)F
Tested On: Human plasma DPP-IV (Homo sapiens)
IC50: 66 nM
--
Molecule: N[C@@H](CCCCNc1ccc([N+](=O)[O-])cn1)C(=O)N1CCSC1
Tested On: Human plasma DPP-IV (Homo sapiens)
IC50: 29 nM
--
Molecule: COc1cc(OC)c2nc(C(F)(F)F)cc(N3CCN([C@@H]4CN[C@H](C(=O)N5CCSC5)C4)CC3)c2c1 [Example 55, dihydrochloride]
Tested On: Human plasma DPP-IV (Homo sapiens)
IC50: 0.24 nM
--
Molecule: N#Cc1ccc(NCCCC[C@H](N)C(=O)N2CCSC2)nc1 [Example 6, dihydrochloride]
Tested On: Human plasma DPP-IV (Homo sapiens)
IC50: 34 nM
--
Molecule: Cc1cc(C)n(C2CCN([C@@H]3CN[C@H](C(=O)N4CCSC4)C3)CC2)n1 [Example 56, trihydrochloride]
Tested On: Human plasma DPP-IV (Homo sapiens)
IC50: 0.91 nM
--
Molecule: O=C([C@@H]1C[C@H](N2CCN(c3cc(C(F)(F)F)nc4ccc(O)cc34)CC2)CN1)N1CCSC1 [Example 48, dihydrochloride]
Tested On: Human plasma DPP-IV (Homo sapiens)
IC50: 0.25 nM
--
Molecule: NCCCC[C@H](N)C(=O)N1CCSC1.O=C(O)C(F)(F)F.O=C(O)C(F)(F)F [comparison compound 1, ditrifluoroacetate, reference compound]
Tested On: Human plasma DPP-IV (Homo sapiens)
IC50: 856 nM
--
Molecule: N#Cc1ccc(NCCCC[C@H](N)C(=O)N2CCSC2)c([N+](=O)[O-])c1
Tested On: Human plasma DPP-IV (Homo sapiens)
IC50: 28 nM
--
Molecule: N[C@@H](CCCCN1CCN(c2cc(C(F)(F)F)nc3ccccc23)CC1)C(=O)N1CCSC1 [Example 28, dihydrochloride]
Tested On: Human plasma DPP-IV (Homo sapiens)
IC50: 35 nM
